biological target: beta-catenin/TCF4 engagement (Homo sapiens, UniProt P35222); construct: expressed in transfected cells; host or cells: HEK293; test: Nano-BRET target engagement assay (B-cat-Halo & TCF4-Luc in HEK293 cells); assay type: cell-based; settings: absolute IC50; read-out: NanoBRET Abs IC50
Sequence (P35222 whole entry): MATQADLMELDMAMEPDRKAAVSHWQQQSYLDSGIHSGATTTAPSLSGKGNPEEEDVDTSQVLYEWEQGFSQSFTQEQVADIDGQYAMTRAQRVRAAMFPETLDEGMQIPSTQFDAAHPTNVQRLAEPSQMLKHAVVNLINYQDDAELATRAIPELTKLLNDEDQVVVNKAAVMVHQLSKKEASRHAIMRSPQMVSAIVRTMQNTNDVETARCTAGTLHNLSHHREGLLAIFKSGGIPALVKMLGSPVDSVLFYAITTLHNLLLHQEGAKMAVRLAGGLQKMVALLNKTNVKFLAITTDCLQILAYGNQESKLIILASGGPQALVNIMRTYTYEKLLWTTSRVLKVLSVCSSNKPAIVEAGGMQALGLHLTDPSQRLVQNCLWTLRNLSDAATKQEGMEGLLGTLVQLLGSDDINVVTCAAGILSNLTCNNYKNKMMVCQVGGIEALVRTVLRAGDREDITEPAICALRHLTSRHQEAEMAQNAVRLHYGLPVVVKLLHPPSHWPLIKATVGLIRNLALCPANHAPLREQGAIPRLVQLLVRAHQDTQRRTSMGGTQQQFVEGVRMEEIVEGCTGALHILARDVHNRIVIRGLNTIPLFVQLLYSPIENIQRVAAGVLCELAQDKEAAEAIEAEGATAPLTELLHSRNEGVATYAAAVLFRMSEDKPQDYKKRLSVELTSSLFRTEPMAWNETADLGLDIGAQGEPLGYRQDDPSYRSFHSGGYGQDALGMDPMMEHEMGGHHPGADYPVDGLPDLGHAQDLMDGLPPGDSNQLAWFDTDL
Recorded Endpoint: pIC50
Give bare numbers, as −log10 of the molar value.

Worked cases, pIC50 given:
CC(=O)N1CCC[C@]12CC=CCCCC1(CCCC=CCCCOC(=O)N3CC[C@@](C(=O)N[C@@H](Cc4ccccc4Cl)C(=O)N[C@@H](Cc4csc5ccccc45)C(=O)N[C@@H](CO)C(N)=O)(C3)NC(=O)[C@H](Cc3ccccc3)NC(=O)[C@H](Cc3ccccc3)NC(=O)[C@H](C)NC(=O)[C@H](C)NC(=O)[C@H](CN(CC(=O)O)CC(F)(F)F)NC(=O)[C@H](CC(=O)O)NC1=O)NC(=O)[C@H](CC(C)(C)C)NC(=O)[C@H](CC(=O)O)NC2=O (some centres unmarked) | 5.06
CC(=O)N1CCC[C@]12CC=CCCCC1(CCCC=CCCCOC(=O)N3CC[C@@](C(=O)N[C@@H](Cc4ccsc4)C(=O)N[C@@H](Cc4csc5ccccc45)C(=O)N[C@@H](CCC(N)=O)C(=O)N[C@H](CO)[C@@H](C)O)(C3)NC(=O)[C@H](CC(C)C)NC(=O)[C@H](Cc3ccccc3)NC(=O)[C@H](C)NC(=O)[C@H](C)NC(=O)[C@H](CN(CC(=O)O)CC(F)(F)F)NC(=O)[C@H](CC(=O)O)NC1=O)NC(=O)[C@H](CC(C)(C)C)NC(=O)[C@H](CC(=O)O)NC2=O (some centres unmarked) | 5.43
CCNC(=O)[C@H](CCC(N)=O)NC(=O)[C@H](Cc1csc2ccccc12)NC(=O)[C@H](Cc1ccccc1Cl)NC(=O)[C@]12CCN(C1)C(=O)OCCCC=CCCCC1(CCCC=CC[C@]3(CCCN3C(C)=O)C(=O)N[C@@H](CC(=O)O)C(=O)N[C@@H](CC(C)(C)C)C(=O)N1)C(=O)N[C@@H](CC(=O)O)C(=O)N[C@@H](CC(=O)O)C(=O)N[C@@H](C)C(=O)N[C@@H](C)C(=O)N[C@@H](Cc1ccccc1)C(=O)N[C@@H](CC(N)=O)C(=O)N2 (some centres unmarked) | 4.71

Record pIC50 for all entries; do not skip any.
1. CC(=O)N1CCC[C@]12CC=CCCCC1(CCCC=CCCCOC(=O)N3CC[C@@](C(=O)N[C@@H](Cc4ccsc4)C(=O)N[C@@H](Cc4csc5ccccc45)C(=O)N[C@H](CO)[C@@H](C)O)(C3)NC(=O)[C@H](CC(C)C)NC(=O)[C@H](Cc3ccccc3)NC(=O)[C@H](C)NC(=O)[C@H](C)NC(=O)[C@H](Cc3ccccc3C(=O)O)NC(=O)[C@H](CC(=O)O)NC1=O)NC(=O)[C@H](CC(C)(C)C)NC(=O)[C@H](CC(=O)O)NC2=O (single isomer, unassigned) [I-1670]
2. CC(=O)N1CCC[C@]12CC=CCCCC1(CCCC=CCCCOC(=O)N3CC[C@@](C(=O)N[C@@H](Cc4ccccc4Cl)C(=O)N[C@@H](Cc4csc5ccccc45)C(=O)N[C@@H](CO)C(N)=O)(C3)NC(=O)[C@H](CO)NC(=O)[C@H](Cc3ccccc3)NC(=O)[C@H](C)NC(=O)[C@H](C)NC(=O)[C@H](CC(=O)O)NC(=O)[C@H](CC(=O)O)NC1=O)NC(=O)[C@H](CC1CCCCC1)NC(=O)[C@H](CC(=O)O)NC2=O (some centres unmarked)

Result ::
1. 5.10
2. 4.61

Every entry's value here was drawn from patent US20240116985A1.
